Reported melting point values for the following molecules.

1. COc1ccc(C2=NN(C3CCN(C(=O)CCSCCNCC(O)c4cc(Cl)c(N)c(Cl)c4)CC3)C(=O)[C@@H]3CC=CC[C@H]23)cc1OC.Cl (stereo partly shown) : 118 to 120 °C
2. COc1ccc(C2=NN(c3ccc(OCCCCNCC(O)c4cc(Cl)c(N)c(Cl)c4)cc3)C(=O)[C@@H]3CC=CC[C@H]23)cc1OC.O=C(O)/C=C/C(=O)O (stereo partly shown) : 126 to 127 °C
3. COc1ccc(C2=NN(C3CCN(C(=S)NCCCCNCC(O)c4cc(Cl)c(N)c(Cl)c4)CC3)C(=O)[C@@H]3CC=CC[C@H]23)cc1OC (stereo partly shown) : 139 to 144 °C
4. COc1ccc(C2=NN(Cc3ccc(OCCCCNCC(O)c4cc(Cl)c(N)c(Cl)c4)cc3)C(=O)[C@@H]3CC=CC[C@H]23)cc1OC.O=C(O)/C=C/C(=O)O (stereo partly shown) : 119 to 120 °C
5. COc1ccc(C2=NN(C3CCN(CCS(=O)(=O)CCNCC(O)c4cc(Cl)c(N)c(Cl)c4)CC3)C(=O)[C@@H]3CC=CC[C@H]23)cc1OC.O=C(O)/C=C/C(=O)O (stereo partly shown) : 137 to 138 °C
6. COc1ccc(C2=NN(C3CCN(S(=O)(=O)CCNCC(O)c4cc(Cl)c(N)c(Cl)c4)CC3)C(=O)[C@@H]3CC=CC[C@H]23)cc1OC.O=C(O)/C=C/C(=O)O (stereo partly shown) : 169 to 171 °C
7. COc1ccc(C2=NN(c3ccc(OCCNCC(O)c4cc(Cl)c(N)c(Cl)c4)cc3)C(=O)[C@@H]3CC=CC[C@H]23)cc1OC.O=C(O)C(=O)O (stereo partly shown) : 136 to 138 °C
8. COc1ccc(C2=NN(c3ccc(OCCCCNCC(O)c4ccc(O)c(CO)c4)cc3)C(=O)[C@@H]3CC=CC[C@H]23)cc1OC.O=C(O)/C=C/C(=O)O (stereo partly shown) : 126 to 127 °C

// recorded melting point for COc1ccc(C2=NN(C3CCN(C(=O)[C@H](C)NCC(O)c4cc(N)c(N)c(Cl)c4)CC3)C(=O)[C@@H]3CC=CC[C@H]23)cc1OC.O=C(O)/C=C/C(=O)O (stereo partly shown) : 130 to 131 °C

So, COc1ccc(C2=NN(CCCCNCC(O)c3cc(Cl)c(N)c(Cl)c3)C(=O)[C@H]3CCCC[C@@H]23)cc1OC.O=C(O)/C=C/C(=O)O (relative stereo) ? Its melting point was 85 to 88 °C

----------
We begin with a simple list: items and their reported melting point.

1. COc1ccc(C2=NN(C3CCN(C(=O)[C@H](C)NCC(O)c4cc(Cl)c(N)c(C#N)c4)CC3)C(=O)[C@@H]3CC=CC[C@H]23)cc1OC.Cl (stereo partly drawn) [Compound 33] : 160 to 161 °C
2. COc1ccc(C2=NN(C3CCN(S(=O)(=O)CCNCC(O)c4ccc(O)c(CO)c4)CC3)C(=O)[C@@H]3CC=CC[C@H]23)cc1OC (stereo partly drawn) [Compound 29] : 97 to 99 °C
3. COc1ccc(C2=NN(CCNCC(O)c3cc(Cl)c(N)c(Cl)c3)C(=O)C3CC=CCC23)c2c1OC1(CCCC1)C2 (stereo not drawn) [Compound 8] : 176 to 177 °C
4. CCOc1ccc(C2=NN(C3CCN(C(=O)CNCC(O)c4cc(Cl)c(N)c(Cl)c4)CC3)C(=O)[C@@H]3CC=CC[C@H]23)cc1OCC.O=C(O)/C=C/C(=O)O (stereo partly drawn) : 172 to 173 °C
5. COc1ccc(C2=NN(C3CCN(C(=O)CCS(=O)(=O)CCNCC(O)c4cc(Cl)c(N)c(C#N)c4)CC3)C(=O)[C@@H]3CC=CC[C@H]23)cc1OC (stereo partly drawn) [Compound 32] : 102 to 103 °C

Attention now turns to another entry.
The measured melting point associated with COc1ccc(C2=NN(C3CCN(CCCCCCNCC(O)c4cc(Cl)c(N)c(C#N)c4)CC3)C(=O)[C@@H]3CC=CC[C@H]23)cc1OC.O=C(O)/C=C/C(=O)O (stereo partly drawn) reads 142 to 143 °C
